Biological target: UniProt Q99683
Sequence (Q99683 whole entry, looked up): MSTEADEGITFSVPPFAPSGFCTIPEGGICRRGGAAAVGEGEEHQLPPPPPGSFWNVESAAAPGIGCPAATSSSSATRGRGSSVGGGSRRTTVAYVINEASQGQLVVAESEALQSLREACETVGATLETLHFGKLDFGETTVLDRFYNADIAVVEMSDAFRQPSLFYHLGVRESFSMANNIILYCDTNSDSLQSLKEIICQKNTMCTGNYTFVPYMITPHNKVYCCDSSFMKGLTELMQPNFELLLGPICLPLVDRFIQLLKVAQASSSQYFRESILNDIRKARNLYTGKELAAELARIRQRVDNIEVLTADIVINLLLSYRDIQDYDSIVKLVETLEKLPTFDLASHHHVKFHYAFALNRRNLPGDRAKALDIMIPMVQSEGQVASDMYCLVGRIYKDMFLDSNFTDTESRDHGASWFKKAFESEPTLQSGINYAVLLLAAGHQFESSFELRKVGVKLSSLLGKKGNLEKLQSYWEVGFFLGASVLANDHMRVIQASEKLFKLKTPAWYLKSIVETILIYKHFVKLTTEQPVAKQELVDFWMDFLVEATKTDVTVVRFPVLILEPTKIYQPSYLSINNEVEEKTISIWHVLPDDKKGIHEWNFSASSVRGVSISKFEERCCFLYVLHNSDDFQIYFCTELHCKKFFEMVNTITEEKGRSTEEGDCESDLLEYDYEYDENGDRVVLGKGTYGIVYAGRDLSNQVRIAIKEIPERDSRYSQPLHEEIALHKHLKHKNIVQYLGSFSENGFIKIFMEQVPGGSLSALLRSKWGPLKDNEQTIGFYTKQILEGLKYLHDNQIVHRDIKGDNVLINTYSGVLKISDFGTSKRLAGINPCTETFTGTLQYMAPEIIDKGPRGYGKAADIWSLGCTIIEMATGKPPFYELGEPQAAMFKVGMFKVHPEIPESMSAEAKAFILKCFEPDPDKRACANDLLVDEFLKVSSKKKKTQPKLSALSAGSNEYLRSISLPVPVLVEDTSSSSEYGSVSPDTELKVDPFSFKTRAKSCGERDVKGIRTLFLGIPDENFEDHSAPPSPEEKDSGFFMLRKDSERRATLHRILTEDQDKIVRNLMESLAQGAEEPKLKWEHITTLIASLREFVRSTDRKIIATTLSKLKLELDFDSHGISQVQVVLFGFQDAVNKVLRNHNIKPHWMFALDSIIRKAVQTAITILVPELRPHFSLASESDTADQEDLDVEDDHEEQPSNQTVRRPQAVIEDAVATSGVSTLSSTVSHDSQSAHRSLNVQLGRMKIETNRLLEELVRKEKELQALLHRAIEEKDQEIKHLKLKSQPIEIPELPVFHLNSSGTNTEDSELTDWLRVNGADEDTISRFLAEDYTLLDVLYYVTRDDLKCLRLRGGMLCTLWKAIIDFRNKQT
Experiment: radiometric filter-binding kinase assay
Settings: compound 1.0 µM
Recorded measurements of residual activity, one per entry

{"INPUT SMILES": "COc1cc2ncn(-c3cc(OCc4ccccc4S(C)(=O)=O)c(C#N)s3)c2cc1OC", "residual activity, %": 83}
{"INPUT SMILES": "CCn1c(-c2nonc2N)nc2cncc(CNC3CCNCC3)c21", "residual activity, %": 97}
{"INPUT SMILES": "Cc1ccc(Sc2cnc(Nc3cccc(Br)n3)s2)cc1C(=O)N1CCN(C(=O)CN)CC1", "residual activity, %": 101}
{"INPUT SMILES": "O=C(N[C@@H](COc1ccc2[nH]c(=O)[nH]c2c1)c1ccccc1)c1cccn(Cc2ccc(F)c(F)c2)c1=O", "residual activity, %": 105}
{"INPUT SMILES": "O=C(Nc1nc2cc(C(F)(F)F)cc(NC3CC3)n2n1)c1cccnc1", "residual activity, %": 11}
{"INPUT SMILES": "CN(C)C/C=C/C(=O)Nc1cccc(C(=O)Nc2ccc(Nc3nccc(-c4cccnc4)n3)cc2)c1", "residual activity, %": 100}
{"INPUT SMILES": "CCNc1nc(Nc2cc(F)c(C(=O)N3CCOCC3)cc2OC)ncc1C(F)(F)F", "residual activity, %": 44}
{"INPUT SMILES": "NC1(c2ccc(-c3nc4ccn5c(=O)[nH]nc5c4cc3-c3ccccc3)cc2)CCC1", "residual activity, %": 87}
{"INPUT SMILES": "NC(=O)c1ccc(-c2ccc(Oc3cncc4sc(-c5nn[nH]n5)cc34)cc2)cc1", "residual activity, %": 104}
{"INPUT SMILES": "Oc1ccc2ccccc2c1SSc1c(O)ccc2ccccc12", "residual activity, %": 129}
{"INPUT SMILES": "CNc1nc(-c2ccc3c(N)n[nH]c3c2)cc(N2C[C@@H](C(=O)NC3CCCCC3)CC[C@H]2C)n1", "residual activity, %": 106}
{"INPUT SMILES": "O=C(Nc1ccccc1-c1cn2c(CN3CCNCC3)csc2n1)c1cnc2ccccc2n1", "residual activity, %": 98}
{"INPUT SMILES": "c1ccc2c(-c3cnn4cc(-c5ccc(N6CCNCC6)cc5)cnc34)ccnc2c1", "residual activity, %": 90}
{"INPUT SMILES": "N#Cc1c(C2CCNCC2)cc(-c2c(O)cccc2OCC2CC2)nc1N", "residual activity, %": 102}
{"INPUT SMILES": "CC(C)(C#N)c1ccc(N2C(=O)OCc3cnc4ccc(-c5cnc6ccccc6c5)cc4c32)cc1", "residual activity, %": 117}
{"INPUT SMILES": "FC(F)(F)c1ccc(-c2ccc(Oc3cncc4sc(-c5nn[nH]n5)cc34)cc2)cc1", "residual activity, %": 95}
{"INPUT SMILES": "O=C(NOC[C@H](O)CO)c1ccc(F)c(F)c1Nc1ccc(I)cc1Cl", "residual activity, %": 108}
